Each recorded value in this set is attributed to PubChem BioAssay (NCI).

Test system: HL-60(TB) leukemia
method-description: NCI-60 one-dose screen, 48 h
condition-context: 10 µM unless noted
The panel holds about 83,000 compounds, 20% with a hit somewhere; the sample as a whole holds those more often. The source made the active and inactive calls. Rule for the calls: active = growth percent below 10; inactive = the rest.
Field 'call' accepts active, inactive

What classification did CCOC(=O)C1=C(C)N2C(=NC3=C(CCC/C3=C\c3ccc(Cl)cc3)C2c2ccc(Cl)cc2)S1 (stereo not given) end up with in this test?
active

What classification did "Cn1c(=O)c2c(nc(N/N=C/c3ccccc3Cl)n2C)n(C)c1=O" end up with in this test?
inactive

What classification did CC(=O)C(C)Cc1cc2c(cc1C)C(C)(C)CCC2(C)C (stereo not given) end up with in this test?
inactive

What classification did "O=C(O)c1cccc2c1-c1ccc(Cl)cc1C2" end up with in this test?
inactive

What classification did "Cc1ccc2nc(NC(=O)CSc3nc(-c4ccccc4)c(C#N)c(=O)n3Cc3ccccc3)sc2c1" end up with in this test?
inactive

What classification did "Cc1c(C(=O)CCl)c(=O)n(-c2ccccc2)n1C" end up with in this test?
inactive

What classification did "C=C(C)[C@@H]1CC[C@]2(C(=O)OC)CC[C@]3(C)[C@H](CC[C@@H]4[C@@](C)(CCc5nn[nH]n5)[C@H](C(=C)C)CC[C@]43C)[C@@H]12" end up with in this test?
active

What classification did "COC(=O)c1cc(Cl)cc([N+](=O)[O-])c1O" end up with in this test?
inactive

What classification did "OCc1cnccc1NCCCOc1ccccc1" end up with in this test?
inactive

What classification did "O=C(c1ccc(Nc2nccc(NCCCCNc3ccnc4cc(Cl)ccc34)n2)cc1)N1CCCCC1" end up with in this test?
active

What classification did "COc1ccc(/C=C2\SC(=O)N(CN3CCN(c4cc5c(cc4F)c(=O)c(C(=O)O)cn5C4CC4)CC3)C2=O)cc1" end up with in this test?
inactive

What classification did "C[C@H]1Oc2cc(cnc2N)-c2c(nn(C)c2C#N)CN(C)C(=O)c2ccc(F)cc21" end up with in this test?
inactive

What classification did "COc1cc(/C=C/c2cc(/C=C/c3ccc(O)c(OC)c3)n(C(=O)c3ccccc3Br)n2)ccc1O" end up with in this test?
active

What classification did "COc1ccc(/C=C/C(=O)Nc2ccc(-c3nc4ccc(OC)cc4s3)cc2)cc1" end up with in this test?
inactive

What classification did "O=S1(=O)OC(c2ccc(O)c(Cl)c2)(c2ccc(O)c(Cl)c2)c2ccccc21" end up with in this test?
inactive

What classification did "N=C(N)c1ccc(-c2ccc(-c3cccs3)s2)cc1F" end up with in this test?
active

What classification did "O=C1Nc2ccc(Cl)cc2/C1=N/c1nc(-c2ccc(F)cc2)cs1" end up with in this test?
active

What classification did CN1C(=O)N2CN3CCCN(C3)CN3C(=S)NC1C23 (stereo not given) end up with in this test?
inactive

What classification did CCOC(=O)C1OC1(c1ccccc1)c1ccccc1 (stereo not given) end up with in this test?
inactive

What classification did "CN(C)c1ccc(-n2nc3ccccc3n2)cc1" end up with in this test?
inactive

----------
The compounds listed here are annotated with their growth.
Tested on: SF-295 CNS
method-description: NCI-60 one-dose screen, 48 h (100 = growth as untreated, 0 = no growth, -100 = all killed)
condition-context: 10 µM unless noted
The panel holds about 83,000 compounds, 20% with a hit somewhere; the sample as a whole holds those more often. The source made the active and inactive calls. The calls were made as follows: active = growth percent below 10; inactive = the rest.

Cc1ccc(C(=O)C2CN(C)CCC2(O)c2ccc(C)cc2)cc1 (stereo not drawn) | 111% (inactive)

The compound N#C[Se]CCCNS(=O)(=O)C1CC2C=CC1C2 (stereo not drawn) , tested on SF-295 CNS, showed growth of -80.7% (active)

The compound "CCOC(=O)/C(C#N)=C/c1ccc(N(CCCl)CCCl)cc1" , tested on SF-295 CNS, showed growth of 43.6% (inactive)

The compound "COc1ccc(/C=C\c2cc(OC)c(OC)c(OC)c2)cc1N/C=C\C(=O)c1c[nH]c2ccccc12" , tested on SF-295 CNS, showed growth of -11.8% (active)

The compound O=C1C=CC(=O)C2C1C1(Cl)C(Cl)=C(Cl)C2(Cl)C1(Cl)Cl (stereo not drawn) , tested on SF-295 CNS, showed growth of 39.5% (inactive)

The compound "C[C@]12CC[C@@H]3C4=C(CC[C@H]3[C@@H]1CC[C@@H]2O)CC(=O)CC4" , tested on SF-295 CNS, showed growth of 102% (inactive)

The compound "CCOCC1(CCc2ccccc2)C(=O)NC(=S)NC1=O" , tested on SF-295 CNS, showed growth of 111% (inactive)

The compound "[O]=[Sn]([CH]1CCCCC1)[CH]1CCCCC1" , tested on SF-295 CNS, showed growth of -85.6% (active)

----------
Tested on: M14 melanoma
method-description: NCI-60 one-dose screen, 48 h (100 = growth as untreated, 0 = no growth, -100 = all killed)
condition-context: 10 µM unless noted
Compounds without any hit were thinned out: in the full panel of roughly 83,000, 20% have a hit.
The compounds listed here are annotated with their growth.
A number alone suffices; assume %.

Answered cases to consult:
COc1ccc(CN2CCN(Cc3ccccc3)CC2)c(O)c1 | 89.5
CNC(C)Cc1ccccc1 (stereo not given) (tested in a mixture with another compound) | 103
Nc1ccc(N)c2c1Oc1ccccc1O2 | 101
CC12CCC(=O)C=C1CCC1C2CCC2(C)C(C(=O)COC(=O)Cc3ccc(N(CCCl)CCCl)cc3)CCC12 (stereo not given) | 104

We next turn to a different compound, shown below.
Sample CC1([N+](=O)[O-])COP(=O)(Nc2ccc(F)cc2)OC1 (stereo not given) ; growth observed: 101

----------
System: SW-620 colon
method-description: NCI-60 one-dose screen, 48 h
condition-context: 10 µM unless noted
Experimental: Growth inhibition of the SW-620 human tumor cell line is measured as a screen for anti-cancer activity. Cells are grown in 96 well plates and exposed to the test compound for 48 hours. Compounds are tested at a single concentration, which is 10^-5 M for most compounds. The reported endpoint is percent growth (GI% or GIPRCNT), where numbers from 0 - 100% represent growth inhibition, and numbers from -100% - 0 represent cell death. For example, a value of 40 represents 60% growth inhibition. […]
About 83,000 compounds went through this panel and 20% of them were active in at least one assay; those are over-represented in the sample as a whole. Active and inactive are the calls of the source. Rule for the calls: active = growth percent below 10; inactive = the rest.
Field 'call' accepts active, inactive

CN(C)P1(N(C)C)=NP(N(C)C)(N(C)C)=NP(N(C)C)(N(C)C)=N1 | inactive
COP(=S)(OC)Oc1ccc(SC)c(C)c1 | inactive
CCCCn1cc(C(=O)/C(C#N)=C/c2cc3ccccc3nc2Cl)c2cc(OC)ccc21 | inactive
CC(C)CCC1(CCO)C(=O)NC(=S)NC1=O | inactive
CCOC(=O)c1cnc(SCc2ccc(Cl)c(Cl)c2)nc1N1CC1 | inactive
CCC1CN1P(=O)(OCCOC)N1CC1CC (stereo unspecified) | inactive
CC1([N+](=O)[O-])COP(=O)(Nc2ccc(F)cc2)OC1 (stereo unspecified) | inactive
OB([O][Hg][c]1ccccc1)[O][Hg][c]1ccccc1 | active

What classification did CCC(C)/C=C(C)/C=C/C(=O)c1c(O)c(-c2ccc(O)cc2)c[nH]c1=O (stereo unspecified) end up with in this test?
inactive

What classification did CCOc1c(Cl)cc(CNC(C)C(O)c2ccccc2)cc1OC (stereo unspecified) end up with in this test?
inactive

What classification did "CCN(CC)CCOc1c(C(C)C)cccc1C(C)C" end up with in this test?
inactive

----------
Test system: HL-60(TB) leukemia
method-description: NCI-60 one-dose screen, 48 h
condition-context: 10 µM unless noted
About 83,000 compounds went through this panel and 20% of them were active in at least one assay; those are over-represented in the sample as a whole. Activity calls are given as the source filed them. The calls were made as follows: active = growth percent below 10; inactive = the rest.
Field 'call' accepts active, inactive

What classification did "C=CCOc1ccc(/C=C2\SC(=S)N(CCc3ccc(O)cc3)C2=O)cc1" end up with in this test?
inactive

What classification did "CN(C)C1CCN(C(=O)c2ccc(NC(=O)Nc3ccc(-c4nc(N5CCOCC5)c5cccn5n4)cc3)cc2)CC1" end up with in this test?
active

What classification did "Cc1nc(Nc2ccccn2)sc1C(=O)/C=C/c1ccc(Br)cc1" end up with in this test?
inactive

What classification did COc1cc(/C=C2\CCCC3=C2N=C2SC(C)=CN2C3c2cc(OC)c(OC)c(OC)c2)cc(OC)c1OC (centres undefined) end up with in this test?
active

----------
Test system: OVCAR-8 ovarian
method-description: NCI-60 one-dose screen, 48 h (100 = growth as untreated, 0 = no growth, -100 = all killed)
condition-context: 10 µM unless noted
About 83,000 compounds went through this panel and 20% of them were active in at least one assay; those are over-represented in the sample as a whole.
The molecules listed here are annotated with their growth.
A number alone suffices; assume %.

Answered cases to consult:
Nc1ncnc2c1c(C(=O)NO)cn2C1OC(CO)C(O)C1O (stereo unspecified) | -20.2
[O]=[Sn]([CH]1CCCCC1)[CH]1CCCCC1 | -66.2
O=C(C(=O)N1CCCC1)c1cn(CCCCCn2cc(C(=O)C(=O)N3CCCC3)c3ccccc32)c2ccccc12 | 90.8
CC(C)(NC(=O)c1nn(CCCCCF)c2ccccc12)c1ccccc1 | 83.5
CC(C)OC(=S)[S-].[Au+].c1ccc([PH+](c2ccccc2)c2ccccc2)cc1 | 27.2

Sample "CC(C)Nc1ccc(Nc2ccccc2)cc1" ; growth observed: 28.1

Sample "CC1(C)CC(=O)CC(C)(C)N1N=O" ; growth observed: 102

Sample "Nc1c(Br)cc2c3c(cccc13)-c1ccccc1-2" ; growth observed: 70.9

Sample CC12CC[C@H](O)C=C1/C(=N/O)CC1C2CCC2(C)C1CC[C@@H]2O (stereo partly specified) ; growth observed: 107

Sample "C=CCc1ccc(OC(=O)Cc2ccccc2)c(OC)c1" ; growth observed: 109

Sample "Oc1c(Br)cc(Br)cc1Br.[Cu+2]" ; growth observed: 103
